Known TGI of a selection of compounds
Tested on: UACC-62 melanoma
Test: NCI tumour cell line growth inhibition, 48 h
observable: TGI

CCCSc1nc(COC(=O)NC)c(COC(=O)NC)n1C	> 100 µM
CC(C)(C)C(=O)CC1=Nc2ccccc2SC1(O)CC(=O)C(C)(C)C (stereo unspecified)	31.3 µM
C=CC/C=C/C/C=C/CCCCCCCc1cccc(O)c1C(=O)O	> 100 µM
NC(=O)NCc1c(C(N)=O)ncn1Cc1ccccc1	> 100 µM
O=C(O)C1C(Br)(c2ccccc2)C1(Br)c1ccccc1 (stereo unspecified)	64.3 µM
ClCC[N+]12CC[N+](CCCl)(CC1)C2	> 100 µM
Cc1ccc2[nH]c(O)c(N=Nc3ccc(S(N)(=O)=O)cc3)c2c1	> 25 µM
Cc1c(C(=O)/C=C/c2ccccc2)[n+](=O)c2ccccc2n1[O-]	28.6 µM
CN1COCc2c1ccc1cc3ccc4c(c3nc21)COCN4S(C)(=O)=O	> 100 µM
C#Cc1c(I)n(C2OC(CO[Si](C)(C)C(C)(C)C)C3OC(C)(C)OC32)c(=O)[nH]c1=O (stereo unspecified)	33.7 µM
Cc1ccc(O)c(-c2cscn2)c1	> 100 µM

----------
Known TGI of a selection of molecules
Test system: COLO 205 colon
Test: NCI tumour cell line growth inhibition, 48 h
observable: TGI (µM)

CC(C(O)Cc1ccccc1)N(C)N=Nc1ccc([N+](=O)[O-])cc1 (stereo unspecified)	39.2
CCn1c(-c2ccc(OC(C)=O)cc2)c(C)c2cc(OC(C)=O)ccc21	47.4
Cc1c(C(=O)/C=C/c2ccccc2)[n+](=O)c2ccccc2n1[O-]	29.8
CC1(C)[C@@H](OC(N)=O)[C@H]2O[C@H]2[C@]2(C=O)[C@H]3CC[C@]4(C)[C@@H](c5ccc(=O)oc5)[C@@H](Cl)C[C@]4(O)C3=CC[C@@H]12	0.0199
O=c1cc(NC2CCN(CCCc3ccccc3)CC2)c2cc(Cl)ccc2o1	23.2
C[C@]12CC[C@@H]3c4cc(OCC(F)(F)F)c(O)cc4/C(=N/O)C[C@H]3[C@@H]1CC[C@@H]2O	35.3
Br[C](Br)(Br)[Hg][c]1ccccc1	16.2
C#Cc1c(I)n(C2OC(CO[Si](C)(C)C(C)(C)C)C3OC(C)(C)OC32)c(=O)[nH]c1=O (stereo unspecified)	4.8
C=C1CCC(CC[C@@H]2CC[C@]3(OC2)O[C@@]2(O)CC[C@]3(C)OC2(C)C)C(C)(C)[C@H]1C/C=C1/C(=O)OC[C@@H]1O (stereo partly specified)	16.3
C=C1C(=O)OC2/C=C(\COC(C)=O)CCC(OC(C)=O)C3=CC(OC3=O)C12 (stereo unspecified)	6.54
CCCCCCCCCCCC(=O)OCC1OC(OC)C(NC(=O)N(CCCl)N=O)C(O)C1O (stereo unspecified)	59
COc1ccc(C2COc3cc(O)c(O)cc3C2)cc1 (stereo unspecified)	27.8
CCN1CCC(O)(/C=C/c2ccc(C)cc2C)C(C(=O)/C=C/c2ccc(C)cc2C)C1 (stereo unspecified)	4.05
COc1cc(/C=C/c2ccc(OC)c(OC)c2)cc(OC)c1	39.7
COc1ccc(/C=C/C(=O)C(CC2CCC2)C(=O)/C=C/c2ccc(OC)c(OC)c2)cc1OC	5
O=C1/C(=C/c2ccc(Cl)cc2)CSc2ccccc21	64.3
